tested on: gastric-acid-secretion; assay: Gastric-acid-secretion inhibition on rats (method of Shay et al.); format: in vivo; conditions: Rattus norvegicus, po; rats, p.o., 4 hours after ligature; read-out: Acid-secretion inhibition, ED50
measurement_label: ED50 (mg/kg)
Please respond with the number in mg/kg and leave the unit unwritten.

stdin: For the molecule CCCCCCC1CCCC(=C\c2ccccc2OC)/C1=N/OCCN(CC)CC (racemic) , what ED50 is on record?
stdout: 103

stdin: Query CN1CCN(CC(=O)N2c3ccccc3C(=O)Nc3cccnc32)CC1 [Pirenzepine, reference compound] next
stdout: 7.9

stdin: Check COc1ccc2[nH]c([S+]([O-])Cc3ncc(C)c(OC)c3C)nc2c1 (stereo not shown) [Omeprazole, reference compound] too.
stdout: 3.9

The values you see were collected from patent US5523303A.
